These measurements were taken from ChEMBL document CHEMBL1201862.

tgt: Mannose-6-phosphate isomerase (Homo sapiens)
Sequence (P34949 whole entry): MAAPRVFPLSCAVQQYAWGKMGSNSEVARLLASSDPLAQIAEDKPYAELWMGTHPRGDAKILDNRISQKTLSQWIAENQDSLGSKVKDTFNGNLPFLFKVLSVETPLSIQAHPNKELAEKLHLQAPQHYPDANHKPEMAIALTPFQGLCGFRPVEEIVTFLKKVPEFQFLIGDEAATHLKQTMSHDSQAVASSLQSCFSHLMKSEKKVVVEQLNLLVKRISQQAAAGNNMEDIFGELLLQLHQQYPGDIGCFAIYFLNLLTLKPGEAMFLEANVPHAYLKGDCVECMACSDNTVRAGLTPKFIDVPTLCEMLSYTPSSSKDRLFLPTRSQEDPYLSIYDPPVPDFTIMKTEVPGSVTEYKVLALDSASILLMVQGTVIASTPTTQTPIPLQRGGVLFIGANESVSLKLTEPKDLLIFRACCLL
assayProtocol: phosphomannose isomerase inhibition – biochemical, fluorescence intensity, confirmation (AID 1535)
Active and inactive are the calls of the source.
quantity: IC50

{"moleculeSmiles": "COc1ccc(/N=c2\\ssnc2Cl)cn1", "tgt": "Mannose-6-phosphate isomerase (Homo sapiens)", "quantity": "IC50", "assayResult": "29.8 µM (active)"}

Exam item: Input O=C(O)c1ccccc1NS(=O)(=O)c1cccc(-n2sc3ccccc3c2=O)c1 , output reported IC50.
Marked response: 0.707 µM (active)

Exam item: Input Cc1cc(/N=c2\ssnc2Cl)n[nH]1 , output reported IC50.
Marked response: 5.94 µM (active)

Exam item: Input Cc1ccc(-n2sc3ccccc3c2=O)cc1S(=O)(=O)N1CCCCC1 , output reported IC50.
Marked response: 3.06 µM (active)

Exam item: Input Cc1ccc(C=Nn2c(-c3ccncc3)n[nH]c2=S)cc1 , output reported IC50.
Marked response: 16.1 µM (active)

====

tgt: UniProtKB P51452
Sequence (P51452 whole entry): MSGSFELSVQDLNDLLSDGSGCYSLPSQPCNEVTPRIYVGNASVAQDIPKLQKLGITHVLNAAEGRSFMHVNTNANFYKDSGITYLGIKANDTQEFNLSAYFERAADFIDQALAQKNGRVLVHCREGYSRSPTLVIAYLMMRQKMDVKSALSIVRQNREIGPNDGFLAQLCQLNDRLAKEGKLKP
assayProtocol: VHR phosphatase inhibition, dose response, selectivity assay for STEP inhibitor project, biochemical (AID 602374)
Type: functional
condition: read-out: IC50_Mean
Activity calls are given as the source filed them.
Reported IC50 values for the following molecules.

Exam item: Jot down IC50 (UniProtKB P51452) of N=C1S/C(=C\c2ccc(O)cc2)C(=O)N1c1ccc(F)cc1 .
Marked response: 2.29 µM (active)

Exam item: Jot down IC50 (UniProtKB P51452) of O=C(COc1ccc(/C=N/NC(=O)c2ccccc2O)cc1)Nc1ccccc1 .
Marked response: 3.88 µM (active)

Exam item: Jot down IC50 (UniProtKB P51452) of CCOc1ccc(/C=N/NC(=O)c2cc3c(OC)cccc3[nH]2)cc1 .
Marked response: 1.85 µM (active)

Exam item: Jot down IC50 (UniProtKB P51452) of CCCCC(=O)Nc1ccc(C(=O)NNC(=O)c2ccc(C)c(Br)c2)cc1 .
Marked response: 4.58 µM (active)

====

tgt: Heat shock protein HSP 90-alpha (Homo sapiens, UniProt P07900)
Assay type: functional, organism-based
Activity calls are given as the source filed them.
quantity: AC50

Example cases with answers are listed next.
{"compound": "Cc1[nH]c2ccc(C(=O)N3CCN(c4cccc(Cl)c4)CC3)cc2c1C", "tgt": "Heat shock protein HSP 90-alpha (Homo sapiens, UniProt P07900)", "quantity": "AC50", "assayResult": "7.72 µM (active)"}
{"compound": "O=C(C#Cc1ccccc1)c1ccco1", "tgt": "Heat shock protein HSP 90-alpha (Homo sapiens, UniProt P07900)", "quantity": "AC50", "assayResult": "3.05 µM (active)"}
{"compound": "CC(C)(C)c1cc(-c2nc(N)nc(N)n2)c(O)c(C(C)(C)C)c1", "tgt": "Heat shock protein HSP 90-alpha (Homo sapiens, UniProt P07900)", "quantity": "AC50", "assayResult": "28.9 µM (active)"}
{"compound": "COc1ccccc1OCc1cc(C(=O)N2CCN(C)C(c3ccccc3)C2)no1 (stereo not given)", "tgt": "Heat shock protein HSP 90-alpha (Homo sapiens, UniProt P07900)", "quantity": "AC50", "assayResult": "4.78 µM (active)"}

Consider the additional compound presented here.
Exam item: Jot down AC50 (Heat shock protein HSP 90-alpha (Homo sapiens, UniProt P07900)) of COc1ccc(N(C(=O)c2ccncc2)S(=O)(=O)c2ccccc2)cc1 .
Marked response: 1.77 µM (active)

====

tgt: UniProt:P38532
Sequence (P38532 whole entry): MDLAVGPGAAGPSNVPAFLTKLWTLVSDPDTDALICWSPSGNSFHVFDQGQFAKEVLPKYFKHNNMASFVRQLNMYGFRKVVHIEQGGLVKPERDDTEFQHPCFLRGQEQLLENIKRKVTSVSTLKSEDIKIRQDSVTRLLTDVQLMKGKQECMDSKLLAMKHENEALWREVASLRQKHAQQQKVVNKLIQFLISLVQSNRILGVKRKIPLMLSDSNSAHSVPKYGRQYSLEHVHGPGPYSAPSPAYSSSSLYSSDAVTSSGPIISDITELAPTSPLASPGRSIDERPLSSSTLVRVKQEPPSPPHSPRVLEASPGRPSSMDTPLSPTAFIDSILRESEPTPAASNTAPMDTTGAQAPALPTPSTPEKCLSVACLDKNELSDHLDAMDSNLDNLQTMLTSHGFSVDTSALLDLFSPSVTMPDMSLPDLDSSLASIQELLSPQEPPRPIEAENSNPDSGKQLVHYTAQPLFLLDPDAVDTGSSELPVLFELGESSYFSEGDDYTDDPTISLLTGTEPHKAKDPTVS
assayProtocol: enhancement of HSF1-driven luciferase signal – cell-based, NIH3T3, luminescence, dose retest, confirmation (AID 435004);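 further: stress induced by proteasome inhibitor MG132 added 30 min after compound; luciferase reporter driven by HSF1 response element in NIH3T3 cells; actives raise luminescence as potentiators of the MG132 stress response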
Type: functional
Active and inactive are the calls of the source.
Can you answer with just one of these options? YES (active), NO (inactive)

Examples from the recorded data:
{"compound": "COc1ccc(S(=O)(=O)N/N=c2\\oc3c(OC)cccc3cc2S(=O)(=O)c2ccc(C)cc2)cc1OC", "categoryLabel": "YES"}
{"compound": "COC(=O)c1cnc2c(c(C)nn2C)c1OC", "categoryLabel": "NO"}

Exam item: Field: outcome | Entry: COc1ccc(/C=C/C(O)=C2/C(=O)N(C)C3(C)CC2c2ccccc2O3)cc1 (stereo unspecified)
Marked response: NO

Exam item: Field: outcome | Entry: Fc1cccc(F)c1CN1CCN(c2ccc(Cl)cc2)CC1
Marked response: NO

Exam item: Field: outcome | Entry: O=C(Cc1c(O)c2ccccc2oc1=O)c1ccc(C(F)(F)F)cc1
Marked response: NO

Exam item: Field: outcome | Entry: CCCCc1c(O)n(-c2ccc(OC)cc2)c(SCC(=O)N2CCOCC2)nc1=O
Marked response: NO

====

Quick record: IC50, Glyceraldehyde-3-phosphate dehydrogenase (Homo sapiens, UniProt P04406).

Example cases with answers are listed next.
{"moleculeSmiles": "O=C1C(Cl)=C(N2CCN(Cc3ccccc3)CC2)C(=O)N1c1ccc(C(F)(F)F)cc1", "tgt": "Glyceraldehyde-3-phosphate dehydrogenase (Homo sapiens, UniProt P04406)", "quantity": "IC50", "assayResult": "> 50 µM (inconclusive)"}
{"moleculeSmiles": "N#Cc1c(NC(=O)CSc2nc[nH]n2)sc2c1CCCCC2", "tgt": "Glyceraldehyde-3-phosphate dehydrogenase (Homo sapiens, UniProt P04406)", "quantity": "IC50", "assayResult": "> 100 µM (not active)"}
{"moleculeSmiles": "Cc1cc(C(=O)Nc2ccc(O)c(C(=O)O)c2)c(C)o1", "tgt": "Glyceraldehyde-3-phosphate dehydrogenase (Homo sapiens, UniProt P04406)", "quantity": "IC50", "assayResult": "> 100 µM (not active)"}

Consider the additional compound presented here.
Exam item: Jot down IC50 (Glyceraldehyde-3-phosphate dehydrogenase (Homo sapiens, UniProt P04406)) of CN1CCN(C(=O)c2cc(-c3ccc(Cl)cc3Cl)n[nH]2)CC1 .
Marked response: > 100 µM (not active)

====

tgt: Tyrosine-protein phosphatase non-receptor type 5 (Homo sapiens, UniProt P54829)
Sequence (P54829 whole entry): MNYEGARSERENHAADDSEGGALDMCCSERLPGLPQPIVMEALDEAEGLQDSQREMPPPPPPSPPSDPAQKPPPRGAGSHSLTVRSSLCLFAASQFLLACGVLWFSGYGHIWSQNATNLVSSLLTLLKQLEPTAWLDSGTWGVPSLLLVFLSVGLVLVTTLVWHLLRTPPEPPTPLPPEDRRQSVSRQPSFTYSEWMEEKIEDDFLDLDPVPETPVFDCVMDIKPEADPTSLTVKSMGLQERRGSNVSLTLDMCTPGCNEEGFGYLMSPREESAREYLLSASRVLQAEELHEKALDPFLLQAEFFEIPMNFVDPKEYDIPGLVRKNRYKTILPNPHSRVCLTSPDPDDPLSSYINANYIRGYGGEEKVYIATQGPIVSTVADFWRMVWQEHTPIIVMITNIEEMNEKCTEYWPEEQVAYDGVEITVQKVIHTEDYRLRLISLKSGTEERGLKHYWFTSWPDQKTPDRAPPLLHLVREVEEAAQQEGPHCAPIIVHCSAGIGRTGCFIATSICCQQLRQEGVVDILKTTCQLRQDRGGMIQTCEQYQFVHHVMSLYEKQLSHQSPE
assayProtocol: PTPN5 enzyme inhibition – biochemical, fluorescence intensity, uHTS hits, confirmation (AID 602372)
Assay type: functional
condition: read-out: IC50_Mean
The source made the active and inactive calls.
Reported IC50 values for the following compounds.

{"moleculeSmiles": "O=C(COc1ccc(/C=N/NC(=O)c2ccccc2O)cc1)Nc1ccccc1", "assayResult": "11.7 µM (active)"}
{"moleculeSmiles": "CCCCC(=O)Nc1ccc(C(=O)NNC(=O)c2ccc(C)c(Br)c2)cc1", "assayResult": "28 µM (inactive)"}
{"moleculeSmiles": "CCOc1ccc(/C=N/NC(=O)c2cc3c(OC)cccc3[nH]2)cc1", "assayResult": "13.2 µM (active)"}

Exam item: Input N=C1S/C(=C\c2ccc(O)cc2)C(=O)N1c1ccc(F)cc1 , output reported IC50.
Marked response: 14.1 µM (active)

====

Reported IC50 values for the following compounds.
tgt: Fatty acid synthase (Homo sapiens, UniProt P49327)
Sequence (P49327 whole entry): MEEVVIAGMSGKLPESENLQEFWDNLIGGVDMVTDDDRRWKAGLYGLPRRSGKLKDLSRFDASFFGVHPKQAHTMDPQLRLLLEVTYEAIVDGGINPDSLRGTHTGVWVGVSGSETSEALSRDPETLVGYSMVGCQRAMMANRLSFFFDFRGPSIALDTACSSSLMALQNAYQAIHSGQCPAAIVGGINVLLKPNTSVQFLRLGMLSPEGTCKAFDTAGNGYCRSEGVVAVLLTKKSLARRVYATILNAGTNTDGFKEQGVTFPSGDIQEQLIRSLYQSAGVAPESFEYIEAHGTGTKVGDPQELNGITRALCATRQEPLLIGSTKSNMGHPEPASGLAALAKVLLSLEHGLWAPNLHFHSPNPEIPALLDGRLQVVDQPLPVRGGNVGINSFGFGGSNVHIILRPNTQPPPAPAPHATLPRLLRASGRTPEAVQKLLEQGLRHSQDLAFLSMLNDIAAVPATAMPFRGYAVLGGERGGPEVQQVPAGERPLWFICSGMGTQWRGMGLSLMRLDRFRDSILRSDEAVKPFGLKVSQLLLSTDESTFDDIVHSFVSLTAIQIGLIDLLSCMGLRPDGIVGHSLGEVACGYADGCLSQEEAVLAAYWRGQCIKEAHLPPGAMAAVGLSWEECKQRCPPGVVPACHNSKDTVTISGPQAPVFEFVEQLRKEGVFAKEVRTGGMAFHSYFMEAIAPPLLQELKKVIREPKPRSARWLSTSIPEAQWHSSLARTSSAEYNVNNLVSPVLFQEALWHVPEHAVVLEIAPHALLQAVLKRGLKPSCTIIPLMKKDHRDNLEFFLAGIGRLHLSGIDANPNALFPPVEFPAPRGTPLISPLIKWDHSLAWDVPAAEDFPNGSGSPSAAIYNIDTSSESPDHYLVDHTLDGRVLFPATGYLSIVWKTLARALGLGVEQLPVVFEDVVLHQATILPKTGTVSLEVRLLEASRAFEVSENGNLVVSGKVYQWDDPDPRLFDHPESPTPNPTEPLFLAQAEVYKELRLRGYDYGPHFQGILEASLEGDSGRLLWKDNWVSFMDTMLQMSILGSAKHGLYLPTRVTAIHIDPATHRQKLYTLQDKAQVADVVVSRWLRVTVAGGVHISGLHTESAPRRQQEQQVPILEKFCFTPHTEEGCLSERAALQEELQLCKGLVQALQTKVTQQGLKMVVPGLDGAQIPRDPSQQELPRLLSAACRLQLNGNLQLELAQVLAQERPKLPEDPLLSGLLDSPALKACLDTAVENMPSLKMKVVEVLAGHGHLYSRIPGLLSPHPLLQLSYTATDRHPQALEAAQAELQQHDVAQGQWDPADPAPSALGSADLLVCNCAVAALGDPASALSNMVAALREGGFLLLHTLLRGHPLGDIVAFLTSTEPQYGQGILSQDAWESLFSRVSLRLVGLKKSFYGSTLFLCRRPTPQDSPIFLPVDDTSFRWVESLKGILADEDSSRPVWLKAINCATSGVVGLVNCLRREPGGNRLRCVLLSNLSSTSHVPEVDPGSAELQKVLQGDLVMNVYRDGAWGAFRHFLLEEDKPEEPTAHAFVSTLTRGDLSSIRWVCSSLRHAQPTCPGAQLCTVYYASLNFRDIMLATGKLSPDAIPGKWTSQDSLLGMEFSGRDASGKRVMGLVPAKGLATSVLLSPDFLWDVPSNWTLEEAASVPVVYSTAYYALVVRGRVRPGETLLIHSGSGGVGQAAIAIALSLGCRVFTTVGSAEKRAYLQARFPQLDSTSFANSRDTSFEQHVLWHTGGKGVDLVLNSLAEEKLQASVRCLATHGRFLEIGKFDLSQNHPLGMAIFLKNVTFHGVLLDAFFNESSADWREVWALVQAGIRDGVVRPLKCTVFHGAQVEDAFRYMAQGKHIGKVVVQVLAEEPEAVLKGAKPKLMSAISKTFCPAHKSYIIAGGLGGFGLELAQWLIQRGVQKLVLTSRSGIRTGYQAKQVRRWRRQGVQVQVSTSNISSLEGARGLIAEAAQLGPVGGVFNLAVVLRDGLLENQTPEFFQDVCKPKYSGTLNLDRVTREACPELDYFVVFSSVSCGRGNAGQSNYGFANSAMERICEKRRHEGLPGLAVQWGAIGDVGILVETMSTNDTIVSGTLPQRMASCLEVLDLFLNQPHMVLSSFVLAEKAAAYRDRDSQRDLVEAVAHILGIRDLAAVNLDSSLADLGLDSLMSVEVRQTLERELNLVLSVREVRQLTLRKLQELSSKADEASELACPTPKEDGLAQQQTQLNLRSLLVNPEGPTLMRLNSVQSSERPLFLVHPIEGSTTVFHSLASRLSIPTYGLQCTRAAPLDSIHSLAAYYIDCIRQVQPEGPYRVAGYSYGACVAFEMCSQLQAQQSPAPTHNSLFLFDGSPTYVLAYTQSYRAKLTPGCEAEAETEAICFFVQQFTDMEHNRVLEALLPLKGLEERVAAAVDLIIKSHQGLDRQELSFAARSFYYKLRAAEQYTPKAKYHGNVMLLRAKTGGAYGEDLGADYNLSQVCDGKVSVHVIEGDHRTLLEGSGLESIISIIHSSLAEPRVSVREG
assayProtocol: inhibition of human FAS-TE enzyme activity – biochemical, endpoint fluorescence intensity, uHTS hits, dose response (AID 624327);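 further: fluorescence from hydrolysis of an O-methyl fluorescein acyl ester substrate by the enzyme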
Type: functional
Activity calls are given as the source filed them.

Example cases with answers are listed next.
{"compound": "Cc1c([N+](=O)[O-])cc(C(=O)Nc2ccc(Cc3ccncc3)cc2)cc1[N+](=O)[O-]", "quantity": "IC50", "assayResult": "7.27 µM (active)"}
{"compound": "COc1ccc(C(=O)NC(C)CCc2ccccc2)cc1[N+](=O)[O-] (configuration not stated)", "quantity": "IC50", "assayResult": "13.4 µM (active)"}
{"compound": "CCOc1ccc(-c2csc(/C(C#N)=C\\c3ccc(O)c([N+](=O)[O-])c3)n2)cc1", "quantity": "IC50", "assayResult": "6.61 µM (active)"}
{"compound": "CCOc1ccc(NC(=O)c2cc([N+](=O)[O-])ccc2N2CCOCC2)cc1", "quantity": "IC50", "assayResult": "13.4 µM (active)"}
{"compound": "COc1ccc(Cl)cc1-c1cc(C(=O)NCc2cccc(Cl)c2)[nH]n1", "quantity": "IC50", "assayResult": "12.4 µM (active)"}

Exam item: Input COc1ccc(/C=C(/NC(=O)c2ccc([N+](=O)[O-])cc2)C(=O)NCCCN(C)C)cc1 , output reported IC50.
Marked response: 5.03 µM (active)

Exam item: Input COc1ccc2[nH]c3c(c2c1)CCN1C(=O)C(CC(=O)NCc2ccco2)C[C@H](C(=O)N2CCOCC2)[C@@]31CCC1CCCC1 (some centres not stated) , output reported IC50.
Marked response: 5.98 µM (active)
